Consider the following compounds and their measured DC50 readings.
Molecular target: BCL-XL (Homo sapiens, UniProt Q07817)
Construct: endogenous in cells; host or cells: MOLT-4
Sequence (Q07817 whole entry): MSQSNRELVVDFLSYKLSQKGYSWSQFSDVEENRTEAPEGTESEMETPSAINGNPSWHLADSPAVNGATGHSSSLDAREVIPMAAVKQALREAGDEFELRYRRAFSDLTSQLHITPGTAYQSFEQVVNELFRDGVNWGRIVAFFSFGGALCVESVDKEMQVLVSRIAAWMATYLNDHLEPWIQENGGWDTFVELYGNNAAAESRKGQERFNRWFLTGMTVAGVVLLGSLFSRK
Experiment: Bcl-xL ELISA degradation in MOLT-4 cells, 6 h
Assay type: cell-based
Conditions: read-out: Bcl-xL ELISA in MOLT-4 degradation 6 h: Mean external-Abs DC50
Procedure: The letter codes for BCL-XL DC50 include: A (<0.01 μM); B (0.01-0.1 μM); C (>[…]); D (>0.5-1.0 μM); and E (>1.0 μM). The letter codes for Dmax % include A (>75%); B (50 to 75%); C (<50%).
Measured Endpoint: DC50

[[record]]
compound = "Cc1ncsc1-c1ccc([C@H](C)NC(=O)[C@@H]2C[C@@H](O)CN2C(=O)[C@@H](NC(=O)C2CCN(CCS(=O)(=O)NC(=O)c3nc(N4CCc5cccc(C(=O)Nc6nc7ccccc7s6)c5C4)ccc3-c3cnn(CC4CCCCC4)c3C)CC2)C(C)(C)C)cc1"
measured_endpoint = "DC50"
data_value = "10 to 100 nM"

[[record]]
compound = "C#Cc1ccc(CNC(=O)[C@@H]2C[C@@H](O)CN2C(=O)[C@@H](NC(=O)CCCS(=O)(=O)NC(=O)c2nc(N(C)c3cc(C)c(Nc4nc5ccccc5s4)nn3)ccc2-c2cnn(CC3CCCCC3)c2C)C(C)(C)C)cc1"
measured_endpoint = "DC50"
data_value = "10 to 100 nM"

[[record]]
compound = "C#Cc1ccc([C@H](C)NC(=O)[C@@H]2C[C@@H](O)CN2C(=O)[C@@H](NC(=O)CCCCCS(=O)(=O)NC(=O)c2nc(N(C)c3cc(C)c(Nc4nc5cccnc5s4)nn3)ccc2-c2cnn(CC34CC5CC(CC(C5)C3)C4)c2C)C(C)(C)C)cc1"
measured_endpoint = "DC50"
data_value = "10 to 100 nM"

[[record]]
compound = "Cc1ncsc1-c1ccc([C@H](C)NC(=O)[C@@H]2C[C@@H](O)CN2C(=O)[C@@H](NC(=O)CCCCN(C)CCCS(=O)(=O)NC(=O)c2nc(N3CCc4cccc(C(=O)Nc5nc6ccccc6s5)c4C3)ccc2-c2cnn(CC3CCCCC3)c2C)C(C)(C)C)cc1"
measured_endpoint = "DC50"
data_value = "100 to 500 nM"

[[record]]
compound = "Cc1cc(N(C)c2ccc(-c3cnn(CC(C)(C)C)c3C)c(C(=O)NS(=O)(=O)c3ccc(N4CCC(C(=O)N[C@H](C(=O)N5C[C@H](O)C[C@H]5C(=O)N[C@@H](C)c5ccc(-c6scnc6C)cc5)C(C)(C)C)CC4)cc3)n2)nnc1Nc1nc2cccnc2s1"
measured_endpoint = "DC50"
data_value = "> 1000 nM"

[[record]]
compound = "Cc1ncsc1-c1ccc([C@H](C)NC(=O)[C@@H]2C[C@@H](O)CN2C(=O)[C@@H](c2cc(OC3CC4(C3)CN(C(=O)c3nc(N5CCc6cccc(C(=O)Nc7nc8ccccc8s7)c6C5)ccc3-c3cnn(CC5CCCCC5)c3C)C4)no2)C(C)C)cc1"
measured_endpoint = "DC50"
data_value = "10 to 100 nM"

[[record]]
compound = "Cc1cc(N(C)c2ccc(-c3cnn(CC45CC6CC(CC(C6)C4)C5)c3C)c(C(=O)NS(=O)(=O)CCCCCC(=O)N[C@H](C(=O)N3C[C@H](O)C[C@H]3C(=O)N[C@H](C)c3ccc4c(c3)c(C)nn4C)C(C)(C)C)n2)nnc1Nc1nc2ccccc2s1 (single isomer, unassigned)"
measured_endpoint = "DC50"
data_value = "10 to 100 nM"

[[record]]
compound = "C#Cc1ccc(CNC(=O)[C@@H]2C[C@@H](O)CN2C(=O)[C@@H](NC(=O)C2CN(c3ccc(S(=O)(=O)NC(=O)c4nc(N5CCc6cccc(C(=O)Nc7nc8ccccc8s7)c6C5)ccc4-c4cnn(CC5CCCCC5)c4C)cc3F)C2)C(C)(C)C)cc1"
measured_endpoint = "DC50"
data_value = "10 to 100 nM"


* * *

target: BCL-XL (Homo sapiens, UniProt Q07817); construct: endogenous in cells; host or cells: MOLT-4; experiment: BCL-XL degradation assay, western blot in MOLT-4 cells, 16 h; type: cell-based; settings: western blot, MOLT-4 cells, 16 h; read-out: Bcl-xL WB in MOLT-4 degradation 16 h: Mean external-Abs DC50
Measured Endpoint: DC50

[[record]]
test_smiles = "Cc1ncsc1-c1ccc([C@H](C)NC(=O)[C@@H]2C[C@@H](O)CN2C(=O)[C@@H](NC(=O)N2CCC3(CCC(C(=O)N4CCN(CC[C@H](CSc5ccccc5)Nc5ccc(S(=O)(=O)NC(=O)c6ccc(N7CCN(CC8=C(c9ccc(Cl)cc9)CCC(C)(C)C8)CC7)cc6)cc5S(=O)(=O)C(F)(F)F)CC4)CC3)CC2)C(C)(C)C)cc1"
data_value = "> 1000 nM"

[[record]]
test_smiles = "Cc1ncsc1-c1ccc([C@H](C)NC(=O)[C@@H]2C[C@@H](O)CN2C(=O)[C@@H](NC(=O)CCCCCCC(=O)N2CCN(C[C@@]3(C)CCC(c4ccc(Cl)cc4)=C(CN4CCN(c5ccc(C(=O)NS(=O)(=O)c6ccc(N[C@H](CCN7CCOCC7)CSc7ccccc7)c(S(=O)(=O)C(F)(F)F)c6)cc5)CC4)C3)CC2)C(C)(C)C)cc1"
data_value = "< 10 nM"

[[record]]
test_smiles = "Cc1ncsc1-c1ccc(CNC(=O)[C@@H]2C[C@@H](O)CN2C(=O)[C@@H](NC(=O)CCCS(=O)(=O)NC(=O)c2nc(N3CCc4cccc(C(=O)Nc5nc6cccnc6s5)c4C3)ccc2-c2cnn(CC3CCCCC3)c2C)C(C)(C)C)cc1"
data_value = "100 to 500 nM"


* * *

// values below are reported Dmax
target: BCL-XL (Homo sapiens); construct: endogenous in cells; host or cells: MOLT-4; assay: Bcl-xL ELISA degradation in MOLT-4 cells, 6 h; assay type: cell-based
Measured Endpoint: Dmax

[[record]]
compound = "Cc1ncsc1-c1ccc([C@H](C)NC(=O)[C@@H]2C[C@@H](O)CN2C(=O)[C@@H](NC(=O)CCCCCS(=O)(=O)NC(=O)c2nc(N3CCc4cccc(C(=O)Nc5nc6ccccc6s5)c4C3)ccc2-c2ccnc(N(C)C(C)C)c2C)C(C)(C)C)cc1 [I-333]"
measured_endpoint = "Dmax"
data_value = "50 to 75%"

[[record]]
compound = "C#Cc1ccc(CNC(=O)[C@@H]2C[C@@H](O)CN2C(=O)[C@@H](NC(=O)C2CN(CCS(=O)(=O)NC(=O)c3nc(N(C)c4cc(C)c(Nc5nc6ccccc6s5)nn4)ccc3-c3cnn(CC45CC6CC(CC(C6)C4)C5)c3C)C2)C(C)(C)C)cc1 [I-433]"
measured_endpoint = "Dmax"
data_value = "> 75%"

[[record]]
compound = "Cc1ncsc1-c1ccc(CNC(=O)N2C[C@@H](O)CC2C(=O)[C@@H](NC(=O)C2(F)CC2)C(C)(C)C)c(O[C@H]2C[C@H](N3CCC(NC(=O)c4nc(N5CCc6cccc(C(=O)Nc7nc8ccccc8s7)c6C5)ccc4-c4cnn(CC5CCCCC5)c4C)CC3)C2)c1 (some centres unmarked) [I-269]"
measured_endpoint = "Dmax"
data_value = "< 50%"

[[record]]
compound = "Cc1ncsc1-c1ccc(CNC(=O)[C@@H]2C[C@@H](O)CN2C(=O)[C@@H](NC(=O)CCc2ccc(S(=O)(=O)NC(=O)c3nc(N4CCc5cccc(C(=O)Nc6nc7ccccc7s6)c5C4)ccc3-c3cnn(CC(C)C)c3C)cc2)C(C)(C)C)cc1 [I-318]"
measured_endpoint = "Dmax"
data_value = "> 75%"

[[record]]
compound = "Cc1ncsc1-c1ccc([C@H](C)NC(=O)[C@@H]2C[C@@H](O)CN2C(=O)[C@@H](NC(=O)N2CCC(CN3CCN(CC#Cc4ccc(OCCCc5sc(N6CCc7cccc(C(=O)Nc8nc9ccccc9s8)c7C6)nc5C(=O)O)c(F)c4)CC3)CC2)C(C)(C)C)cc1 [I-72]"
measured_endpoint = "Dmax"
data_value = "< 50%"

[[record]]
compound = "Cc1cc(N(C)c2ccc(-c3cnn(CC4CCCCC4)c3C)c(C(=O)NS(=O)(=O)CCCCC(=O)N[C@H](C(=O)N3C[C@H](O)C[C@H]3C(=O)N[C@@H](C)c3ccc(-c4scnc4C)cc3)C(C)(C)C)n2)nnc1Nc1nc2ccccc2s1 [I-353]"
measured_endpoint = "Dmax"
data_value = "> 75%"

[[record]]
compound = "Cc1ncsc1-c1ccc(CNC(=O)[C@@H]2C[C@@H](O)CC2C(=O)[C@@H](NC(=O)C2(F)CC2)C(C)(C)C)c(OCCCCCCNC(=O)c2nc(N3CCc4cccc(C(=O)Nc5nc6ccccc6s5)c4C3)ccc2-c2cnn(CC3CCCCC3)c2C)c1 (some centres unmarked) [I-158]"
measured_endpoint = "Dmax"
data_value = "< 50%"

[[record]]
compound = "Cc1ncsc1-c1ccc([C@H](C)NC(=O)[C@@H]2C[C@@H](O)CN2C(=O)[C@@H](NC(=O)N2CC(CN3CCC(S(=O)(=O)NC(=O)c4nc(N5CCc6cccc(C(=O)Nc7nc8ccccc8s7)c6C5)ccc4-c4cnn(CC5CCCCC5)c4C)CC3)C2)C(C)(C)C)cc1 [I-336]"
measured_endpoint = "Dmax"
data_value = "> 75%"

